Tested on: Raf Pathway phospho-ERK, Breast
Assay: Cellular assay Raf pathway phospho-ERK, breast (Bio-Plex phospho-ERK1/2 immunoassay)
Type: cell-based
Settings: Homo sapiens, inhibition of target phosphorylation in whole cells by 50%
Procedure: A 96-well phospho-ERK (PERK) immunoassay, using laser flow cytometry platform has been established to measure inhibition of basal pERK in cell lines. MDA-MB-231 cells were plated at 50,000 cells per well in 96-well microtitre plates in complete growth media. […] The relative fluorescence units of pERK1/2 were detected by counting 25 beads with Bio-Plex flow cell (probe) at high sensitivity. The IC50 was calculated by taking untreated cells as maximum and no cells (beads only) as background.
Readout label: IC50 (nM)
Kindly provide the numeric value in nM only, without the unit symbol.

Any idea what IC50 was measured for `CNC(=O)c1cc(Oc2ccc(NC(=O)Nc3ccc(Cl)c(C(F)(F)F)c3)cc2)ccn1` ?
80

---

Readout label: melting point

- Compound: "CCNC(=O)c1cc(Oc2ccc(NC(=O)Nc3ccc(Cl)c(C(F)(F)F)c3)cc2)ccn1 [Entry 51]"
  Measured: "187 to 189 °C"
- Compound: "CNC(=O)c1cc(Oc2ccc(NC(=O)Nc3cc(C(F)(F)F)ccc3OC)c(Cl)c2)ccn1 [Entry 17]"
  Measured: "187 to 188 °C"
- Compound: "COc1ccc(C(F)(F)F)cc1NC(=O)Nc1ccc(Oc2ccnc(C(N)=O)c2)cc1 [Entry 14]"
  Measured: "114 to 117 °C"

Any idea what melting point was measured for CCNC(=O)c1cc(Oc2ccc(NC(=O)Nc3cc(C(F)(F)F)ccc3OC)cc2)ccn1 [Entry 19] ?
194 to 196 °C

Any idea what melting point was measured for CNC(=O)c1cc(Sc2ccc(NC(=O)Nc3cc(C(F)(F)F)ccc3OC)cc2)ccn1 [Entry 27] ?
218 to 219 °C

Any idea what melting point was measured for CNC(=O)c1cc(Oc2ccc(NC(=O)Nc3cc(C(F)(F)F)ccc3OC)cc2Cl)ccn1 [Entry 20] ?
214 to 216 °C

Any idea what melting point was measured for CCNC(=O)c1cc(Oc2ccc(NC(=O)Nc3cc(C(F)(F)F)c(Cl)cc3OC)cc2)ccn1 [Entry 99] ?
180 to 181 °C

Any idea what melting point was measured for CNC(=O)c1cc(Oc2ccc(NC(=O)Nc3cc(C(F)(F)F)ccc3OC)c(C)c2)ccn1 [Entry 16] ?
210 to 213 °C

Any idea what melting point was measured for CNC(=O)c1cc(Oc2ccc(NC(=O)Nc3cc(C(F)(F)F)c(Cl)cc3OC)cc2Cl)ccn1 [Entry 97] ?
220 to 221 °C

Any idea what melting point was measured for CNC(=O)c1cc(Oc2ccc(NC(=O)Nc3ccc(Br)c(C(F)(F)F)c3)cc2Cl)ccn1 [Entry 87] ?
217 to 219 °C

Any idea what melting point was measured for CCNC(=O)c1cc(Oc2ccc(NC(=O)Nc3ccc(Br)c(C(F)(F)F)c3)cc2)ccn1 [Entry 88] ?
183 to 184 °C

Any idea what melting point was measured for CNC(=O)c1cc(Oc2ccc(NC(=O)Nc3cc(C(F)(F)F)c(Cl)cc3OC)c(Cl)c2)ccn1 [Entry 96] ?
244 to 245 °C

Any idea what melting point was measured for CNC(=O)c1cc(Oc2ccc(NC(=O)Nc3ccc(Cl)c(C(F)(F)F)c3)c(Cl)c2)ccn1 [Entry 49] ?
147 to 151 °C

Any idea what melting point was measured for CNC(=O)c1cc(Oc2ccc(NC(=O)Nc3cc(C(F)(F)F)c(Cl)cc3OC)cc2)ccn1 [Entry 95] ?
140 to 144 °C
